- assay notes: Cyclic voltammetry, redox potentials
- Format: physicochemical
- protocol conditions: no added halide; in mV
assay metric: E1/2

Illustrative cases are given below, each with its answer.
The compound listed as CN(C)CCN(C)CC(=O)[O-].[Cl-].[Cl-].[Fe+2].[Na+] [compound 17, [Fe^II(N2O1)Cl2][Na]] shows E1/2 equal to +159

The recorded E1/2 for entry CN(C)CCN(C)CC(=O)[O-].[Cl-].[Cl-].[Cl-].[Fe+3] [Fe^III N2O1, [Fe^III(N2O1)(Cl)3]] equals +136

Quick note, E1/2 for CN(C)c1cccc2cccc([NH+](C)C)c12.CN(CC(=O)[O-])Cc1ccccn1.[Cl-].[Cl-].[Cl-].[Fe+3] [Fe^III N2O1py, [PSH][Fe^III(N2O1py)(Cl)3]] landed at +189

---
Value of measured E1/2 for the entry CN(CC(=O)[O-])Cc1ccccn1.[Cl-].[Cl-].[Fe+2] [[Fe^II(N2O1py)(Cl)2]^−, [PSH][Fe^II(N2O1py)(Cl)2]] : +216

The measured values listed here are drawn from patent US10428043B2.
